biological target: purified catalytic domain of recombinant human TACE (rhTACEc) (Homo sapiens, UniProt P78536, N452Q/S266A); construct: Residue 215 to 477 with two mutation (S266A and N452Q) and a 6×His tail; 6xHis (C); made in house; host or cells: baculovirus/Hi5 insect cells; assay: TACE kinetic assay: cleavage of internally quenched peptide substrate SPDL-3, fluorescence; assay type: biochemical; details: TACE inhibitory activity, class symbols; read-out: Ki
Sequence (P78536 215-477 S266A/N452Q): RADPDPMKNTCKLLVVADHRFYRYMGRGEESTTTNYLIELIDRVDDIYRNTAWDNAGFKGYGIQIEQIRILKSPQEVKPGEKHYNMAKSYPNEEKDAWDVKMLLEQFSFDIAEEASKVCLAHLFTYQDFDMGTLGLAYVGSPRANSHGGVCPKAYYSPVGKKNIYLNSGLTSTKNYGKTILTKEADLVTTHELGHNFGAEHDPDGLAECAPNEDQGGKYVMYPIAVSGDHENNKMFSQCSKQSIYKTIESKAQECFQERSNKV
observed.property: Ki

>>> print(df.to_string())
                                   compound  observed_property     result
0  Cn1cc(-c2ccccc2)nc1[C@H](O)[C@@H](O)C(=O)NCC1CCN(c2ccc(F)cc2C#N)CC1                 Ki  > 1000 nM
1  N#Cc1ccccc1N1CCC2(CC1)CC2NC(=O)[C@H](O)[C@@H](O)C(=O)N1CCC[C@@H]1c1ccccc1 (stereo partly shown) [Compound 2152]                 Ki  > 1000 nM
2  CCNc1nc([C@@H]2c3ccccc3CN2C(=O)[C@H](O)[C@@H](O)C(=O)N[C@H](C)c2ccc(-n3cccn3)cc2)cs1                 Ki    < 20 nM

Reported Ki for N#Cc1cc(F)ccc1N1C[C@@H]2C(CNC(=O)[C@H](O)[C@@H](O)C(=O)N3CCCC3)[C@@H]2C1 (stereo partly shown) : what is it? 100 to 1000 nM

Reported Ki for CC(C)Nc1nc([C@@H]2c3ccccc3CN2C(=O)[C@H](O)[C@@H](O)C(=O)N[C@H](C)c2ccc(-n3cccn3)cc2)cs1 : what is it? < 20 nM

Reported Ki for CC#CCOc1cc([C@@H](C)NC(=O)[C@](C)(O)[C@@H](O)C(=O)N2Cc3cccnc3C2)ccc1-n1cccn1 : what is it? < 20 nM

Reported Ki for N#Cc1ccccc1N1CCC2(CC1)CC2NC(=O)[C@H](O)[C@@H](O)C(=O)N1CCC[C@@H]1c1ccccc1 (stereo partly shown) [Compound 2153] : what is it? > 1000 nM

* * *

Each record here notes measured Ki.
biological target: purified catalytic domain of recombinant human TACE (rhTACEc) (Homo sapiens, UniProt P78536, N452Q/S266A); construct: Residue 215 to 477 with two mutation (S266A and N452Q) and a 6×His tail; 6xHis (C); made in house; host or cells: baculovirus/Hi5 insect cells; experiment: TACE kinetic assay: cleavage of internally quenched peptide substrate SPDL-3, fluorescence; assay type: biochemical; conditions: TACE inhibitory activity, class symbols; read-out: Ki

A selection of reference data follows.
compound	Ki
O=C([C@H](O)[C@@H](O)c1cncc(-c2ccc(-c3ccccc3)cc2)n1)N1Cc2ccccc2C1 [Compound 2403]	> 1000 nM
O=C(NCc1ccc(-c2ccc(F)cc2OCCC2CCCCC2)cc1)[C@H](O)[C@@H](O)C(=O)N1CCCC1 [Compound 2342]	100 to 1000 nM
N#Cc1ccccc1N1CCC2(CC1)CC2NC(=O)[C@H](O)[C@@H](O)C(=O)N1Cc2ccccc2C1 (some centres unmarked) [Compound 2154]	> 1000 nM

Reported Ki for O=C([C@H](O)[C@@H](O)c1cncc(-c2ccccc2)n1)N1Cc2ccccc2C1 [Compound 2391] : what is it? > 1000 nM

Reported Ki for C[C@@H](NC(=O)[C@H](O)[C@@H](O)C(=O)N1Cc2cccnc2C1)c1ccc(-n2cccn2)c(O)c1 [Compound 2305] : what is it? < 20 nM

Reported Ki for C[C@@H](NC(=O)[C@H](O)[C@@H](O)C(=O)N1CCC[C@@H]1c1csc(N)n1)c1ccc(-n2cccn2)cc1 [Compound 2255] : what is it? < 20 nM

Reported Ki for C[C@H]1CN(c2ccccc2C#N)CCC1CNC(=O)[C@H](O)[C@@H](O)C(=O)N1CCC[C@@H]1c1ccccc1 (some centres unmarked) [Compound 2145] : what is it? 100 to 1000 nM

Reported Ki for CNc1nc([C@H]2c3ccccc3CCN2C(=O)[C@H](O)[C@@H](O)C(=O)N[C@H](C)c2ccc(-n3cccn3)cc2)cs1 [Compound 2586] : what is it? < 20 nM

Reported Ki for CC1c2cnc(N)nc2CN1C(=O)[C@H](O)[C@@H](O)C(=O)N[C@H](C)c1ccc(-n2cccn2)cc1 (some centres unmarked) [Compound 2051] : what is it? 20 to 100 nM

Reported Ki for CC(C)Nc1nc([C@H]2c3ccc(Cl)cc3CCN2C(=O)[C@H](O)[C@@H](O)C(=O)N[C@H](C)c2ccc(-n3cccn3)cc2)cs1 [Compound 2589] : what is it? < 20 nM

Reported Ki for C[C@@H](NC(=O)[C@H](O)[C@@H](O)C(=O)N(C)C1Cc2ccccc2C1)c1ccc(-n2cccn2)cc1 [Compound 2489] : what is it? 20 to 100 nM

Reported Ki for C[C@@H](NC(=O)[C@H](O)[C@@H](O)C(=O)N1CCC[C@@H]1c1csc2nccn12)c1ccc(-n2cccn2)cc1 [Compound 2506] : what is it? < 20 nM

Reported Ki for C[C@@H](NC(=O)[C@H](O)[C@@H](O)C(=O)N1CCc2cc(Cl)ccc2C1c1cc[nH]n1)c1ccc(-n2cccn2)cc1 (some centres unmarked) [Compound 2596] : what is it? < 20 nM

Reported Ki for N#Cc1cc(F)ccc1N1[C@@H]2CC[C@H]1CC(CNC(=O)[C@H](O)[C@@H](O)C(=O)N1Cc3ccccc3C1)C2 (some centres unmarked) [Compound 2149] : what is it? 100 to 1000 nM

* * *

Each record here notes measured Ki.
target: purified catalytic domain of recombinant human TACE (rhTACEc) (Homo sapiens, UniProt P78536, N452Q/S266A); construct: Residue 215 to 477 with two mutation (S266A and N452Q) and a 6×His tail; 6xHis (C); made in house; host or cells: baculovirus/Hi5 insect cells; test: TACE kinetic assay: cleavage of internally quenched peptide substrate SPDL-3, fluorescence; format: biochemical; settings: TACE inhibitory activity, class symbols; read-out: Ki

A selection of reference data follows.
>>> df
                                   molecule  observed_property          result
0  CC(=O)N(C)c1nc([C@H]2CCCN2C(=O)[C@H](O)[C@@H](O)C(=O)N[C@H](C)c2ccc(-n3cccn3)cc2)cs1                 Ki       < 0.02 µM
1  CNc1nc([C@H]2CCCN2C(=O)[C@H](O)[C@@H](O)C(=O)NCC2CCN(c3ccc(F)cc3C#N)CC2)cs1                 Ki       < 0.02 µM
2  C[C@@H](NC(=O)[C@H](O)[C@@H](O)C(=O)N1Cc2cccnc2C1)c1ccc(-n2cccn2)c(OCc2ccccc2)c1                 Ki       < 0.02 µM
3  O=C(NCc1ccc(-c2ccc(F)cc2OCC(F)(F)F)cc1)[C@H](O)[C@@H](O)C(=O)N1CCCC1                 Ki  0.02 to 0.1 µM
4  C[C@@H](NC(=O)[C@H](O)[C@@H](O)C(=O)N1CCCC1c1nccs1)c1ccc(-n2cccn2)cc1 (stereo partly shown)                 Ki       < 0.02 µM
5  C[C@@H](NC(=O)[C@H](O)[C@@H](O)C(=O)N1CCc2ccccc21)c1ccc(-n2cccn2)cc1                 Ki  0.02 to 0.1 µM
6  C[C@@H](NC(=O)[C@H](O)[C@@H](O)C(=O)N1CC(C)(C)CC1(C)C)c1ccc(-n2cccn2)cc1                 Ki     0.1 to 1 µM
7  C[C@@H](NC(=O)[C@H](O)[C@@H](O)C(=O)N1CCc2ncccc2C1)c1ccc(-n2cccn2)cc1                 Ki  0.02 to 0.1 µM
8  C[C@@H](NC(=O)[C@H](O)[C@@H](O)C(=O)N1CCN(c2ccccc2)C(=O)C1)c1ccc(-n2cccn2)cc1                 Ki     0.1 to 1 µM
9  C[C@@H](NC(=O)[C@H](O)[C@@H](O)C(=O)N1CC(C)(C)C[C@@]1(C)c1cccc(Cl)c1)c1ccc(-n2cccn2)cc1                 Ki          > 1 µM

Reported Ki for CNc1nc([C@H]2C[C@@H]3C[C@@H]3N2C(=O)[C@H](O)[C@@H](O)C(=O)N[C@H](C)c2ccc(-n3cccn3)cc2)cs1 : what is it? 0.02 to 0.1 µM

Reported Ki for C[C@@H](NC(=O)[C@H](O)[C@@H](O)C(=O)N1CCC[C@@H]1c1ncccn1)c1ccc(-n2cccn2)cc1 : what is it? < 0.02 µM

Reported Ki for C[C@@H](NC(=O)[C@H](O)[C@@H](O)C(=O)N1CC2CC1CN2c1ccc(Cl)cc1)c1ccc(-n2cccn2)cc1 (stereo partly shown) [Compound 2419] : what is it? 0.1 to 1 µM
